Test system: MDA-MB-435
Assay: NCI tumour cell line growth inhibition, 48 h
Activity calls are given as the source filed them. No stated cut-off is given here; in the data, active = GI50 up to about 1.1 µM and inactive = higher.
Just give me one of these, please: Yes = active, No = inactive

Here are 4 compounds together with their reported answers.
- compound: "O=C1c2cc(O)c(O)cc2O[C@H](c2ccc(O)c(O)c2)[C@H]1O"
  assigned.label: "No"
- compound: "CC1(C)[C@@H](Cn2cnc3c(N)ncnc32)CC[C@@]1(C)CO"
  assigned.label: "No"
- compound: "O=C(O)c1cc(Sc2ccc([N+](=O)[O-])c(C(=O)O)c2)ccc1[N+](=O)[O-]"
  assigned.label: "No"
- compound: "CCn1c(=O)c2c3cc(OC(C)=O)ccc3oc2c2ccc(OC(C)=O)cc21"
  assigned.label: "No"

How was CCOc1cc(C2CC(c3ccc(NS(=O)(=O)c4cc([N+](=O)[O-])ccc4C)cc3)=NN2)ccc1O (configuration not stated) classified in this test? No

Hello, I am checking results. What call was entered for Cc1nc2ccc(S(=O)(=O)NS(=O)(=O)c3ccc(-c4ccccc4)cc3)cc2c(=O)n1NS(=O)(=O)c1ccc(-c2ccccc2)cc1 ? No

---

Test system: HL-60
Test: NCI tumour cell line growth inhibition, 48 h
The source made the active and inactive calls. No stated cut-off is given here; in the data, active = GI50 up to about 1.1 µM and inactive = higher.
Output constraint: value belongs to active, inactive

Reference set (10 entries):
- compound: "OCc1ccc2c(c1)CC1(Cc3ccc(/C=N/O)cc3C1)C2 (stereo unspecified)"
  assigned.label: "active"
- compound: "O=C1/C(=N\\O)c2ccccc2S1(=O)=O"
  assigned.label: "inactive"
- compound: "C/C(=N\\NC(=O)c1ccncc1)c1ccc2ccccc2c1O"
  assigned.label: "active"
- compound: "COc1c(C2=NC(C(C)C)CO2)ccc2ccccc12 (stereo unspecified)"
  assigned.label: "inactive"
- compound: "CC(C)Cc1c(C#N)c(C#N)c(N)n1Cc1ccccc1"
  assigned.label: "inactive"
- compound: "Cc1ccc(Nc2nc3c(s2)C(=O)c2ccccc2C3=O)cc1"
  assigned.label: "active"
- compound: "COc1ccc2oc(=N)c(C(=O)Nc3ccccn3)cc2c1"
  assigned.label: "inactive"
- compound: "O=C1N(C2CCCCC2)C(=O)N1C1CCCCC1"
  assigned.label: "active"
- compound: "C1CCNCC1.Oc1ncnc2[nH]cc(CN3CCCCC3)c12"
  assigned.label: "inactive"
- compound: "O=C(/C(=C\\c1ccc(Cl)cc1)c1ccccc1)c1ccccc1"
  assigned.label: "inactive"

Please state the recorded outcome for this compound: O=C(O/N=C1/CCCC/C1=C\c1ccccc1)c1ccc(Cl)cc1 inactive

Given COc1cc(OC)c(OC)cc1/C=C\c1ccnc2ccccc12 , state the outcome it received in this test. active

# fetch the recorded call for O=C1CC2C(=O)N(Cc3ccccc3)C1C(S(=O)(=O)c1ccccc1)C2S(=O)(=O)c1ccccc1 (stereo unspecified) here inactive

I would be grateful if you could indicate the recorded call for CC(NNC(=O)c1ccncc1)c1ccccc1 (stereo unspecified) . inactive

Can you look up the reported call for CCc1c(OC(C)=O)c2c(NC3OC(COC(C)=O)C(OC(C)=O)C(OC(C)=O)C3OC(C)=O)nc(OC)nc2oc1=O (stereo unspecified) for me? inactive

Write down the call the test reported for this compound. Item: CC(=O)O[C@H]1C(=O)[C@]2(C)[C@@H](OC(=O)OCCC(O)CO)C[C@H]3OC[C@@]3(OC(C)=O)[C@H]2[C@H](OC(=O)c2ccccc2)[C@]2(O)C[C@H](OC(=O)[C@H](O)[C@@H](NC(=O)c3ccccc3)c3ccccc3)C(C)=C1C2(C)C (stereo partly specified) active

---

Test system: NCI-H522
Experiment: NCI tumour cell line growth inhibition, 48 h
Active and inactive are the calls of the source. Rule as the data show it: active = GI50 up to about 1.1 µM and inactive = higher.
Choose the fitting class; nothing outside active, inactive is accepted.

Returns: the outcome recorded for Nc1nc(O)c2ncn(C3OC(CO)C(O)C3O)c2n1 (stereo not drawn) in this assay. inactive

# outcome recorded in this test, key = Cc1sc2ccccc2[n+]1CCC(=O)O inactive

Record request — test call for N/N=c1/nc2n(c3ncccc13)C=CNN2 inactive

Please share the test call associated with CCOC(=O)NNC(=O)NCCNC(=O)NNC(=O)OCC . inactive

Hey, what did the test say about C=C1C[C@]23CC[C@@H]4C(CO)(CO)CC(=O)C[C@]4(C)[C@@H]2CC[C@H]1C3 ? inactive

# lookup: test call for CC(C)c1cc(C(C)C)c(B(c2ccccc2)c2ccccc2)c(C(C)C)c1B(c1ccccc1)c1ccccc1 inactive

Recorded call for O=C(O/N=C1/CCCC/C1=C\c1ccccc1)c1ccc(Cl)cc1 ? inactive

Outcome logged for Cc1nc(Nc2ccc(Cl)cc2Cl)sc1C(=O)Nc1ccccc1 in this assay: inactive

What did this assay record as the result for Cc1ccc(NC(=O)C(=O)C2NC(=S)NC2=O)c([N+](=O)[O-])c1 (stereo not drawn) ? inactive

Look up the recorded call for COc1cc(OC)c(OC)cc1/C=C\c1ccnc2ccccc12 in this test. active

State the result this test recorded for CCOc1cc(C2CC(c3ccc(NS(=O)(=O)c4cc([N+](=O)[O-])ccc4C)cc3)=NN2)ccc1O (stereo not drawn) . inactive

Hi team, can someone confirm the assay call for Cc1cc2nc3ccccc3n2c2nc(N)ccc12 ? inactive

---

System: SK-OV-3
Assay: NCI tumour cell line growth inhibition, 48 h
Active and inactive are the calls of the source. Rule as the data show it: active = GI50 up to about 1.1 µM and inactive = higher.
Output constraint: value belongs to active, inactive

Solved cases below.
- compound: "C[C@]12CC[C@H]3[C@@H](CCC4=C(Br)C(=O)C=C[C@@]43O)[C@@H]1CCC2=O"
  system.name: "SK-OV-3"
  assigned.label: "inactive"
- compound: "CCOC(=O)C1(C#N)C(C#N)(C#N)C1(C#N)C#N"
  system.name: "SK-OV-3"
  assigned.label: "inactive"
- compound: "c1cnc2nc3n(c2c1)CSC3"
  system.name: "SK-OV-3"
  assigned.label: "inactive"
- compound: "COC(=O)C1=C(OC(=O)/C=C/c2ccc(Cl)cc2)C(C(=O)OC)[C@]2(O)[C@@H](C(=O)OC)[C@H]1C[C@@H](c1ccccc1)[C@@H]2C(=O)OC (some centres undefined)"
  system.name: "SK-OV-3"
  assigned.label: "inactive"
- compound: "NS(=O)(=O)c1nnc(NC(=O)C23CC4CC(CC(C4)C2)C3)s1"
  system.name: "SK-OV-3"
  assigned.label: "inactive"
- compound: "O=[N+]([O-])c1cc(C2ON=C(c3ccccc3)N2C23CC4CC(CC(C4)C2)C3)ccc1Cl (centres undefined)"
  system.name: "SK-OV-3"
  assigned.label: "inactive"

Recorded call for COc1cccc(/C=N/n2c(Cc3ccccc3)n[nH]c2=O)c1 ? inactive

So what was the verdict on C=CCOc1ccc(N)c([N+](=O)[O-])c1 in this test? inactive

Could you kindly confirm the outcome this assay logged for CCC[C@H](O)[C@@H](CNc1cc(NC(C)=O)nc(NC(C)=O)n1)N(Cc1ccccc1)Cc1ccccc1 ? inactive

Any idea what this test logged for Cc1nc2ccc(S(=O)(=O)NS(=O)(=O)c3ccc(-c4ccccc4)cc3)cc2c(=O)n1NS(=O)(=O)c1ccc(-c2ccccc2)cc1 ? inactive

Test call, this compound: CC1CC(C(=O)OC2OC(COC3OC(CO)C(OC4OC(C)C(O)C(O)C4O)C(O)C3O)C(O)C(O)C2O)C2CCC3(C)C(=CCC4(C)C3CCC3C(C)(CO)C(O)C(O)CC34C)C2C1C (centres undefined) inactive

Recorded test call requested for CC[C@@]1(O)CC(OC2CC(N3CCOCC3)C(O)C(C)O2)c2c(O)c3c(c(O)c2[C@H]1O)C(=O)c1cccc(O)c1C3=O (some centres undefined) active

---

Catalogue of molecules with associated GI50
Tested on: HL-60
Experiment: NCI tumour cell line growth inhibition, 48 h
The source made the active and inactive calls. Rule as the data show it: active = GI50 up to about 1.1 µM and inactive = higher.

Here's what some known entries look like.
- molecule: "O=C(CC1=Nc2nnc(CCCCCCCc3nnc4n3C(=O)C(CC(=O)c3ccc5ccccc5c3)=N4)n2C1=O)c1ccc2ccccc2c1"
  reported.measurement: "> 100 µM (inactive)"
- molecule: "CC(=O)NNc1nc(C)c(C(/C=C/c2ccc3c(c2)OCO3)=N/Nc2ccccc2)s1"
  reported.measurement: "> 100 µM (inactive)"
- molecule: "O=S(OC12CC3CC(CC(C3)C1)C2)c1cc(Cl)cc(Cl)c1OCc1ccccc1 (centres undefined)"
  reported.measurement: "> 100 µM (inactive)"

Attention now turns to another entry.
Entry under test: C/C(Cl)=N\OC(=O)Nc1ccccc1C(F)(F)F . Its GI50 was 3.5 µM (inactive)

---

GI50 values by entry
Tested on: SNB-75
Assay: NCI tumour cell line growth inhibition, 48 h
Active and inactive are the calls of the source. Cut-off read from the data, not from the text of the source: active = GI50 up to about 1.1 µM and inactive = higher.

Some solved cases for reference:
- molecule: "CC(=O)NC1CC2Oc3ccc(C)cc3C(C)(O2)C1O (centres undefined)"
  measurement.label: "GI50"
  reported.measurement: "> 100 µM (inactive)"
- molecule: "COc1cccc2cc(C)c(C(=O)c3ccccc3)nc12"
  measurement.label: "GI50"
  reported.measurement: "91.2 µM (inactive)"
- molecule: "Nc1ccn(C2CC(O)C(COP(=O)(S)OC3CC(n4ccc(N)nc4=O)OC3CO)O2)c(=O)n1 (centres undefined)"
  measurement.label: "GI50"
  reported.measurement: "36.5 µM (inactive)"

Read the next record carefully.
Measured on SNB-75, CC1=NNC(=O)C1C1CC(c2c[nH]c3ccccc23)=NNC1=S (centres undefined) has a documented GI50 of > 100 µM (inactive)
